Just for reference, paper PMC7564829 is where these values come from.

Entries and their measured MIC follow.
Test system: MDR E. coli B2 (mcr-1 + blaNDM-5)
method.notes: microbe, parasite or virus in culture
Format: cell-based
experimental.parameters: MDR B2 (mcr-1 + blaNDM-5, 18 h)
Ends that are not written are not given here.
readout.name: MIC

substance="WKWKWK-NH2 [WK-6]" readout_name=MIC assay_result=">64 mg/L"
substance="WRLWRLWRL-NH2 [WL-9]" readout_name=MIC assay_result="8 mg/L"
substance="WRWRWR-NH2 [WR-6]" readout_name=MIC assay_result=">64 mg/L"
substance="WKVWKVWKV-NH2 [WV-9]" readout_name=MIC assay_result=">64 mg/L"
substance="KWKWKW-NH2 [KW-6]" readout_name=MIC assay_result=">64 mg/L"
substance="WRLRWRLRWRLR-NH2 [WR-12]" readout_name=MIC assay_result="2 mg/L"
substance="Ac-WKVKWKVKWKVK-NH2 [WKK-12]" readout_name=MIC assay_result="64 mg/L"
substance="RWRWRW-NH2 [MP196]" readout_name=MIC assay_result=">64 mg/L"
